The origin of these recorded values is ChEMBL document CHEMBL5137055.

Target: Amyloid-beta precursor protein (Homo sapiens, UniProt P05067)
Sequence (P05067 whole entry): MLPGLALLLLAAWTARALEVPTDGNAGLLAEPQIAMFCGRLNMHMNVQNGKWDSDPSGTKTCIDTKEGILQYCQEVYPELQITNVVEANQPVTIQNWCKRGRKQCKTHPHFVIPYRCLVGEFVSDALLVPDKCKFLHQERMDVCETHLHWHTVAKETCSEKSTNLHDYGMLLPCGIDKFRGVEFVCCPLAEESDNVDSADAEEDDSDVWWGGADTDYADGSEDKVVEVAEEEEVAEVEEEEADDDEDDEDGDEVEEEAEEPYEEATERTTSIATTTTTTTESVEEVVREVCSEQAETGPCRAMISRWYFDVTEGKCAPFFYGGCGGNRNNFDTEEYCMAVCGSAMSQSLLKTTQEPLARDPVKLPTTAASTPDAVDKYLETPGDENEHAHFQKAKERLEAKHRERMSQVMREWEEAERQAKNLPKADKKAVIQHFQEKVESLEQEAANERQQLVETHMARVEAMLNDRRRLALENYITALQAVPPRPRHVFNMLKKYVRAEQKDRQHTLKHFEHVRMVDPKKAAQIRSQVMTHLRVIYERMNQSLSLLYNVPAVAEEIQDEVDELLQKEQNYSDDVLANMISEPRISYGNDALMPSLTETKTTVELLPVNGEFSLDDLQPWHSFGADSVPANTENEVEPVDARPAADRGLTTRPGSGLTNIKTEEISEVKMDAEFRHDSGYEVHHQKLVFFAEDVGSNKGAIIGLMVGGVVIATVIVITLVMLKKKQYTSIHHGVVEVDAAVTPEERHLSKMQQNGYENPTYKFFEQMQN
Test: Binding affinity to amyloid beta (1 to 40) (unknown origin) oligomer
Listed below: Kd values for each entry.

CHEMICAL_STRING: CCCCN(CCCC)c1ccc2cc(/C=C/c3cc[n+](C)c4ccccc34)ccc2c1
MEASURED_ON: Amyloid-beta precursor protein (Homo sapiens, UniProt P05067)
Kd (µM): 20.1
--
CHEMICAL_STRING: COCCOCCn1c2ccc(F)cc2c2cc(/C=C/c3cc[n+](CCO)c4ccccc34)ccc21
MEASURED_ON: Amyloid-beta precursor protein (Homo sapiens, UniProt P05067)
Kd (µM): 0.66
--
CHEMICAL_STRING: CCCCN(CCCC)c1ccc2cc(/C=C/c3cc[n+](CCO)c4ccccc34)ccc2c1
MEASURED_ON: Amyloid-beta precursor protein (Homo sapiens, UniProt P05067)
Kd (µM): 41.7
--
CHEMICAL_STRING: CCCCN(CCCC)c1ccc2cc(/C=C/c3c[n+](C)cc4ccccc34)ccc2c1
MEASURED_ON: Amyloid-beta precursor protein (Homo sapiens, UniProt P05067)
Kd (µM): 36.4
